Give measured λabs, absorbance maximum wavelength for each item. Keep answers brief.
Experiment: Absorbance and fluorescence maximum wavelengths and quantum yields of the CyNA library
Format: physicochemical
Conditions: CyNA library
Be sure to follow the number with its unit.

GET /value?item= CCCN1/C(=C/C=C2\CCCC(/C=C/C3=[N+](CCC)c4ccccc4C3(C)C)=C2N(CC(C)C)C(C)=O)C(C)(C)c2ccccc21 [CyNA-487] &field=λabs, absorbance maximum wavelength returns 806 nm

GET /value?item= CCCN1/C(=C/C=C2\CCCC(/C=C/C3=[N+](CCC)c4ccccc4C3(C)C)=C2N(Cc2ccc(C)cc2)C(C)=O)C(C)(C)c2ccccc21 [CyNA-396] &field=λabs, absorbance maximum wavelength returns 804 nm

GET /value?item= CCCN1/C(=C/C=C2\CCCC(/C=C/C3=[N+](CCC)c4ccccc4C3(C)C)=C2N(Cc2ccc3c(c2)OCO3)C(C)=O)C(C)(C)c2ccccc21 [CyNA-49] &field=λabs, absorbance maximum wavelength returns 804 nm

GET /value?item= CCCN1/C(=C/C=C2\CCCC(/C=C/C3=[N+](CCC)c4ccccc4C3(C)C)=C2N(CCc2ccccc2Cl)C(C)=O)C(C)(C)c2ccccc21 [CyNA-480] &field=λabs, absorbance maximum wavelength returns 803 nm
